B1: PTPLAD1 (parent)
chain: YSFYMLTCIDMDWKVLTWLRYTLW

Variants of: B1
assay protocol: protein stability index of a GFP-peptide fusion (GPS, HEK-293T) (PSI 1-6); higher = more stable;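 note: lentivirally expressed fusions sorted by FACS into six bins by GFP to DsRed ratio, PSI derived from sequencing read proportions per bin multiplied by bin number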
condition details: c terminus: a fixed tail appended
Please enter yes where protein stability index is greater than or equal to 3, and no where it is lower.

Example results:
[
  {
    "mutation spec": "L19P",
    "answer label": "yes"
  },
  {
    "mutation spec": "K14W",
    "answer label": "no"
  },
  {
    "mutation spec": "D10E",
    "answer label": "no"
  },
  {
    "mutation spec": "D10P",
    "answer label": "no"
  },
  {
    "mutation spec": "I9Y",
    "answer label": "no"
  }
]

Quick check, protein stability index >= 3? `R20T`
yes

Quick check, protein stability index >= 3? `V15E`
no

Quick check, protein stability index >= 3? `M5K`
no

Quick check, protein stability index >= 3? `W24M`
yes

Quick check, protein stability index >= 3? `L19R`
no

Quick check, protein stability index >= 3? `F3W`
no

Quick check, protein stability index >= 3? `D12Y`
no

Quick check, protein stability index >= 3? `T7H`
yes

Quick check, protein stability index >= 3? `R20H`
yes

Quick check, protein stability index >= 3? `Y4R`
no

Quick check, protein stability index >= 3? `R20C`
no

Quick check, protein stability index >= 3? `W24Y`
no

Quick check, protein stability index >= 3? `V15Q`
no

Quick check, protein stability index >= 3? `I9Q`
no
